- experimental_target: T1, human IL-33 (mm2) (human, UniProt O95760 112-270)
- T1 construct: Variant in which all four cysteine residues are serine; the entry carries an N-terminal Met and a C-terminal His6; Biotinylated in some assays; also called hIL-33 (mm2); huIL-33 (mm2)
- T1 chain: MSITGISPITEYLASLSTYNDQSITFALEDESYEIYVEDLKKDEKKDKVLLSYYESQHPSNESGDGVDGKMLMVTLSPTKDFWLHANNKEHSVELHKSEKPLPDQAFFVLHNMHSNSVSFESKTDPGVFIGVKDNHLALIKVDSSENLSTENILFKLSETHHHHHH
- measurement_description: BIAcore, IgG captured by anti-human Fc, 125 nM IL-33 (mm2)
outcome_measure: koff (s⁻¹)
State the answer as a number, implicitly in s⁻¹.

Reference set, count: 4
9B3-36 (antibody, human IgG1, kappa, V domains shown) VH: EVQLVETGGGLVQPGRSLKLSCVASGFTFSNYWMYWIRQAPGMGLEWVSSINNDGGNTYYLDSVKGRFTISRNNAENTVYLQMNSLRSEDTATYYCAKGHYYYTSYSFAYWGQGTLVTVSS VL: DIQMTQSPSVLSASVGDRVTLSCKASHNINKHLDWYQQKVGEAPKLLIYFTNNLQTGIPSRFSGSGSGTDYTLTISSLQPEDVATYFCFQYNSGWTFGQGTKVEIKR ... 0.000289
9B3-3 (antibody, human IgG1, kappa, V domains shown) VH: EVQLVETGGGLVQPGRSLKLSCVASGFTFSNYWMYWIRQAPGMGLEWVSSINNDGGNTYYLDSVKGRFTISRNNAENTVYLQMNSLRSEDTATYYCAKGHYSYSSYSIDYWGQGTLVTVSS VL: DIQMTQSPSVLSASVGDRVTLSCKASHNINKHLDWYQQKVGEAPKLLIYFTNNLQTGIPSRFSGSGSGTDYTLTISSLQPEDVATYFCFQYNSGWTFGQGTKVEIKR ... 0.000424
9B3-13 (antibody, human IgG1, kappa, V domains shown) VH: EVQLVETGGGLVQPGRSLKLSCVASGFTFSNYWMYWIRQAPGMGLEWVSSINNDGGNTYYLDSVKGRFTISRNNAENTVYLQMNSLRSEDTATYYCARGHYYYNSYSFAHWGQGTLVTVSS VL: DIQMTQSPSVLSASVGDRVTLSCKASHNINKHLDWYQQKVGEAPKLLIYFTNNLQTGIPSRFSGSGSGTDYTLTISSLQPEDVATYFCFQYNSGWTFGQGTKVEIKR ... 0.000326
9B3-1 (antibody, human IgG1, kappa, V domains shown) VH: EVQLVETGGGLVQPGRSLKLSCVASGFTFSNYWMYWIRQAPGMGLEWVSSINNDGGNTYYLDSVKGRFTISRNNAENTVYLQMNSLRSEDTATYYCAKGHYYYSSYSLGYWGQGTLVTVSS VL: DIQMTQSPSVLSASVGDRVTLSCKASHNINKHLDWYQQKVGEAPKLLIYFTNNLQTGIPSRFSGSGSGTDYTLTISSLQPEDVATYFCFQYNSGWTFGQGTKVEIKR ... 0.000569

Switching to the query record.
stdin: // koff lookup, key: 9B3-7 (antibody, human IgG1, kappa, V domains shown) VH: EVQLVETGGGLVQPGRSLKLSCVASGFTFSNYWMYWIRQAPGMGLEWVSSINNDGGNTYYLDSVKGRFTISRNNAENTVYLQMNSLRSEDTATYYCAKGRYYYSSYSFAYWGQGTLVTVSS VL: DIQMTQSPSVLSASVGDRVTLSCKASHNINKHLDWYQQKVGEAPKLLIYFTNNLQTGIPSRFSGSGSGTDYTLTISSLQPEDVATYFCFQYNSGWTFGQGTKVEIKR
stdout: 0.000589
